Test name: In vivo pharmacokinetics after oral dosing
Experimental context: male, Sprague-Dawley, rat, plasma, 40 mg/kg equivalent to scutellarin, SD rats, n = 5, mean ± SD
Value kind: Cmax (ng/mL)
Give bare numbers, in ng/mL.

Could you share which Cmax value was measured for O=C(O)[C@H]1O[C@@H](Oc2cc3oc(-c4ccc(O)cc4)cc(=O)c3c(O)c2O)[C@H](O)[C@@H](O)[C@@H]1O [Scutellarin powder, Scutellarin] ? 178

###

Test name: In vivo pharmacokinetics after oral dosing
Experimental context: male, Sprague-Dawley, rat, plasma, 40 mg/kg equivalent to scutellarin, SD rats, n = 5, mean ± SD
Value kind: AUC(0-t) (ng·h/mL)
Numbers only, in ng·h/mL.

Could you share which AUC(0-t) value was measured for O=C(O)[C@H]1O[C@@H](Oc2cc3oc(-c4ccc(O)cc4)cc(=O)c3c(O)c2O)[C@H](O)[C@@H](O)[C@@H]1O ? 2670

###

Test name: In vivo pharmacokinetics after oral dosing
Experimental context: male, Sprague-Dawley, rat, plasma, 40 mg/kg equivalent to scutellarin, SD rats, n = 5, mean ± SD
Value kind: Tmax (h)
Give bare numbers, in h.

Could you share which Tmax value was measured for O=C(O)[C@H]1O[C@@H](Oc2cc3oc(-c4ccc(O)cc4)cc(=O)c3c(O)c2O)[C@H](O)[C@@H](O)[C@@H]1O [Scutellarin powder, Scutellarin] ? 5.2
